System: K4 kissing-loop RNA reporter;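 also: bound reporter read as fluorescence of individual clusters on recovered sequencing chips by microscopy, with normalized cluster intensities fitted with a binding model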
EXPERIMENTAL_DETAILS: apparent KD of K4 kissing-loop reporter; higher = weaker reporter binding
ASSAY_CONTEXT: Eterna round: R107; input ligand: none
Property: apparent KD of K4 kissing-loop reporter; scope: individual sequences

PRIMARY_SEQUENCE	apparent KD of K4 kissing-loop reporter, nM
UGUACCGAGUCAGGAUAUGGCCGGAAACGGAAUAACCAGUGAUGUUGGAAUAAAUGGCGAAAGCCUCCAGAAGGGACUUGGUACU [FmnBS 18 #SwitchBubble #StaticStem #DoubleMagnetSystem]	211
GAAAGAAAGUAUGAUACCAGACACCCGAGUGAUGUUCGGAGCAGUGUGUUGUUCUUUUAAGUCCCUUGGCAGCAUAAAAGAAAAG [whbob_SS_Theo_B_sa85]	127
CCUUCUCUUGAUAGUGAUGUUAUCAAGGGCAAGGAUAUCAUCUCAAUGAGAAGGUGUCCUUGAUAACAUGGAGGUCUGAAACAGA [Omei KL FMN A Exc C v4]	209
UUAGAGAUCUCAGGAUAUCAGUGAUGUUGGUUUCCAGAUCUGAGAUAGAAUUCUAUCUCAGAUCAAUGAGAAGGGAGAUCUCAUU [AK4.1 Exc FMN B]	151
GGUAGCUAGGCAGGAUAUAGCUAGUGGAGUGAUGUUCCACCAUACACGAGUGAUGUUCGUAACCUGCUAGAAGGGCCUAGCUACC	144
GCAAAGUGUCAUAUUAUCUAGCAGCUGCGAAAGGAUAUGAGAGUGCUCAGAAGGUUCUUGGCGGAGUGAUGUUCCGCGUAAAUGG [theeternabot_exclusion_KL_FMN_A_22]	93.9
GUACGCUGCUGAGUGAUGUUCAGCAAUCGCUAGGAUAUCGCUUUUGCGAGAAGGAGCGCAAUGAGGAAACUCGUUGUUAGUGUAC [FMN A 28]	255
GCGGGCCAGACGGCCGCCACUCCGGGCAGUGAUGUUGCGAAACUUCUACUAGAGUGAUGUUCUACGAGGACCGGGUCGGAACGCG [Exclusion Tryptophan B Gf 13]	951
AUUUAUGUAUCAGGAUAUUAGUGAUGUUUGUUUUUGUUAGUGAUGUUGAUAUUUGUUUUAUGUAUUUAAGAAGGGAUUGAGAUGU [wwewmullin]	34.7
AGUAAUGUCACGGCCGCCACUCUUUAUUGUUUUUAUAGUUAUAAAUCUUGCCAGUGAUGUUGGUAGAGGACCGGGUGACUUAAUA [#26 K4 Tryptophan B Same State]	245
CGCUUUGCGUCCGGUAGUGAUGUUACCAAGCGAGGACCGGUACGGCCGCCACUCGAGUGACAGACGUACUGGUAUCACCCGCUUU	248
UUAUAUAUAUUAGAUACCAGUUUAAUGGAAACAAAUUAUGUUAUGAGUGAUGUUCAUGUAAGCCCUUGGCAGCUGGUAUGGGUUU [KL-XTheo-B18]	237
AGAACUGUCUUGGAUACCAGUGAUGUUGGUAUCUAUGUGUGAGUGCAAAGCGUCCCACAUUGCCCUUGGCAGCUAAGACUGUUCA [Omei KL Theo B Exc A v2]	146
UGUAUGGACUGAAGGAGCGCUAGGAGUGUGAGUGAUGUUCAUACAAAUGUAUAGAUGGUCUGGCAGGUAGGUCGCAGUCCAUACU [KL-SSArg B4]	203
AAGUGUCAUUAGACACACUGAUGUAUAAACUAGGAUAUGCUGAUAAGCAGAAGGAGUGAUGUUCCUUUCAACAUCAGAAUUAAAU [KL-XFMN-A1]	155
AUGCGACGUGCGGCCGCCACUCGGAUGCGAGUGAUGUUCGCGGGCCGGCCGCAAGGCCGGCAUUCGAGGACCGGGCAUCGGUGUA [#2 Same State - Tryptophan B Attempt #1 (HarryS)]	546
GCAGCUCGGGAGUGAUGUUCUCGUAGAGGAAAGGAUAUGUACUUAGACAGAAGGUUCGCAAUUUGCGGUCUUAAGAUAGAAUAAC [theeternabot_sameState_KL_FMN_A_40]	207
GGAUAGGACAGAGGAUAUCCUUGAGGCAAGAAACUUGUCUCUAAAAGGAUGAACCUAGUGAUGUUAGGAGAAGGCUGUCCUAUCG [FmnBX 13 - #SwitchBubble #StaticStem #Palindromic]	98.2
AGCAUUUUCAGAAGGAGCGUGAAUUAUUCUUAAGUAUAUUAUACGAGUGAUGUUCGUAUUUCACAGGUAGGUCGCUGAUAUAGCA [JR_SSArginiB_Sub003]	54.6
UGACUACAAAAGGAAUAAUCCUAGUGAUGUUAGGAUAUGCUGAUAAGCAGAAGGAACUGAGAUCGAAAGAUCUCAAAUGUAGUCU [FmnAX 25 Mat Inspired #SwitchBubble #StaticStem #K4Early]	92.3
UUGGUCUUUUAAGGAUAUCAUACUCCACUGAGCGAGUGAUGUUCGCUCCUGUUACGCCUGGGACCGUGAGAAGGUAAAGUACCGU [theeternabot_sameState_KL_FMN_B_5]	163
UCCUGCAAUCUGCCACGAAAGUGGAUGGAUACCAGAGUCGAAAGACUCCCUUGGCAGCCAGUGAUGUUGGAAGCAGGUAAAUAAA	454
AGCGACUCGAAAGGGUCGCGGCUAAGGGAUACCAGUGAUGUUGGUCACCCUUGGCAGCCCAGAAGCCAAGCCACCAAAGGUGGCA [Omei KL Theo A Exc A v10]	119
